Each record here notes measured inhibition.
- Tested System: Serine/threonine-protein kinase Sgk2 (Homo sapiens);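 also: each value is a mean percent inhibition of SGK2 from the GSK PKIS kinase screen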
- Sequence (whole entry): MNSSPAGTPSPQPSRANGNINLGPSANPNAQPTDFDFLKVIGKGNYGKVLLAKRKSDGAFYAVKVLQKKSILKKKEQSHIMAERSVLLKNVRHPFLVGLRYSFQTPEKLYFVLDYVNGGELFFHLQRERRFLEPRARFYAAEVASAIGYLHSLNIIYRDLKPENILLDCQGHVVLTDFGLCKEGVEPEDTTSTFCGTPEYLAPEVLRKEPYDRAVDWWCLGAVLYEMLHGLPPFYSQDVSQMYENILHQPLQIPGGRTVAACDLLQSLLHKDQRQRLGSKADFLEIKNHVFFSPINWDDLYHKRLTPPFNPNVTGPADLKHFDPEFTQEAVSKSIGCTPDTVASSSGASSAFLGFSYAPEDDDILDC
- Experimental Parameters: at 0.1 µM
Quick reminder: number only, in %, skip the unit.

>>> print(df.to_string())
                                   molecule                             tested_system  test_readout  measure_unit  measured
0  CCNC(=O)O[C@H]1CN[C@H](C#Cc2cc3ncnc(Nc4ccc(OCc5cccc(F)c5)c(Cl)c4)c3s2)C1  Serine/threonine-protein kinase Sgk2 (Homo sapiens)    inhibition             %      8.05
1  Fc1cccc(COc2ccc(Nc3ncnc4sc(-c5ccco5)cc34)cc2Cl)c1  Serine/threonine-protein kinase Sgk2 (Homo sapiens)    inhibition             %      1.55
2   Nc1nc(-c2ccc(F)cc2)c(-c2ccc3ncccc3n2)s1  Serine/threonine-protein kinase Sgk2 (Homo sapiens)    inhibition             %      4.24
3  CCn1c(-c2nonc2N)nc2c(C#CC(C)(C)O)ncc(OC3CCNCC3)c21  Serine/threonine-protein kinase Sgk2 (Homo sapiens)    inhibition             %      5.71
4  FC(F)(F)c1cccc(-c2nn3ncccc3c2-c2ccnc(Nc3ccc4c(c3)OCCO4)n2)c1  Serine/threonine-protein kinase Sgk2 (Homo sapiens)    inhibition             %     -3.49
5  CCn1c(-c2nonc2N)nc2cnc(Oc3cccc(NC(=O)c4ccc(N(C)C)cc4)c3)cc21  Serine/threonine-protein kinase Sgk2 (Homo sapiens)    inhibition             %      16.3
6  CCCN1CCC(c2ccc(Nc3nc(Nc4cc(F)ccc4C(N)=O)c4cc[nH]c4n3)c(OC)c2)CC1  Serine/threonine-protein kinase Sgk2 (Homo sapiens)    inhibition             %      4.48
7  CNC(=O)c1cccc(C#Cc2cncnc2Nc2ccc(OCc3cccc(F)c3)c(Cl)c2)c1  Serine/threonine-protein kinase Sgk2 (Homo sapiens)    inhibition             %     -0.28

The molecule identified as Clc1ccc(-c2nn3ncccc3c2-c2ccnc(Nc3ccccc3)n2)cc1 registered its inhibition at 1.58

---

- Tested System: Leukocyte tyrosine kinase receptor (Homo sapiens) (UniProt P29376)
- Sequence (P29376 whole entry): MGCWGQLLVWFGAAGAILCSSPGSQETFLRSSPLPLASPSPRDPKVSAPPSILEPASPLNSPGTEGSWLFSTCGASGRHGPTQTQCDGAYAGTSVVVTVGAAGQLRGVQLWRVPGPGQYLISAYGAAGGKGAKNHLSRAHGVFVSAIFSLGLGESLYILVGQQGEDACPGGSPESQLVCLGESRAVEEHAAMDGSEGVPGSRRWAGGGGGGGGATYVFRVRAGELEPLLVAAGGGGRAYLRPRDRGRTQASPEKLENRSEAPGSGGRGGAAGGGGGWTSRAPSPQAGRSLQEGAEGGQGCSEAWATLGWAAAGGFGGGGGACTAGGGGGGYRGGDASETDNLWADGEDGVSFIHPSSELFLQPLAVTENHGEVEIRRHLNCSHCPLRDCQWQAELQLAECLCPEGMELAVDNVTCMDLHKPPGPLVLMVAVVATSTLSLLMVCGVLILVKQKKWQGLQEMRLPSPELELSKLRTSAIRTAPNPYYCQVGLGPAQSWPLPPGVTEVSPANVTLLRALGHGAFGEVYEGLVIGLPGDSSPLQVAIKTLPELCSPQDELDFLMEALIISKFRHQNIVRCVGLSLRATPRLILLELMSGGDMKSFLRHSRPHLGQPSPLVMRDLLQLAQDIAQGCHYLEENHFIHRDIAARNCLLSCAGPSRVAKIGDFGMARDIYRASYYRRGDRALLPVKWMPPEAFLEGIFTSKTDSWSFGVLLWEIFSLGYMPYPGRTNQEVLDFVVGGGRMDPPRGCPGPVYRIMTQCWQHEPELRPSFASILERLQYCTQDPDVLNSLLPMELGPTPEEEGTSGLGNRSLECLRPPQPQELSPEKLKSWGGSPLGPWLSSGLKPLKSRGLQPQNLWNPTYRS
- Experimental Parameters: at 0.1 µM
- Description: GSK_PKIS: LTK mean inhibition at 0.1 uM [Nanosyn]
Test Readout: inhibition (%)
Quick reminder: number only, in %, skip the unit.

Given the molecule CCn1c(-c2nonc2N)nc2c(C#CC(C)(C)O)nc(OC[C@H](N)c3ccccc3)cc21 and test system Leukocyte tyrosine kinase receptor (Homo sapiens) (UniProt P29376), the measured inhibition is 5.32

Given the molecule [O-][S+]1CCN(Cc2ccc(-c3ccc4ncnc(Nc5ccc(OCc6cccc(F)c6)c(Cl)c5)c4c3)o2)CC1 and test system Leukocyte tyrosine kinase receptor (Homo sapiens) (UniProt P29376), the measured inhibition is 7.04

Given the molecule Fc1ccc(-c2cc(-c3c[nH]nc3-c3ccccn3)ccn2)cc1 and test system Leukocyte tyrosine kinase receptor (Homo sapiens) (UniProt P29376), the measured inhibition is 4.6

Given the molecule c1ccc(COc2ccc(Nc3ncnc4ccc(-c5ccco5)cc34)cc2)cc1 and test system Leukocyte tyrosine kinase receptor (Homo sapiens) (UniProt P29376), the measured inhibition is 0.59

Given the molecule CNC(=O)c1cccc(C#Cc2cncnc2Nc2ccc(OCc3cccc(F)c3)c(Cl)c2)c1 and test system Leukocyte tyrosine kinase receptor (Homo sapiens) (UniProt P29376), the measured inhibition is 1.28

Given the molecule CNC(=O)c1cc(-c2ccc(F)cc2)cc(-c2ccc(S(=O)(=O)N3CCCC3)cc2)c1N and test system Leukocyte tyrosine kinase receptor (Homo sapiens) (UniProt P29376), the measured inhibition is 2.81

Given the molecule Fc1cccc(COc2ccc(Nc3ncnc4sc(-c5ccco5)cc34)cc2Cl)c1 and test system Leukocyte tyrosine kinase receptor (Homo sapiens) (UniProt P29376), the measured inhibition is 3.44

Given the molecule CCn1cc(-c2ccnc3[nH]ccc23)c(-c2cccc(NC(=O)Nc3ccc(OCc4ccccc4)cc3)c2)n1 and test system Leukocyte tyrosine kinase receptor (Homo sapiens) (UniProt P29376), the measured inhibition is 1.35

Given the molecule COc1ccc2c(-c3ccnc(Nc4cccc(OC(F)(F)F)c4)n3)cnn2n1 and test system Leukocyte tyrosine kinase receptor (Homo sapiens) (UniProt P29376), the measured inhibition is 3.12

Given the molecule Cc1cccc(Nc2ncc(-c3ccccc3)o2)c1 and test system Leukocyte tyrosine kinase receptor (Homo sapiens) (UniProt P29376), the measured inhibition is 3.02

Given the molecule COc1ccc(-c2nn3ncccc3c2-c2ccnc(Nc3ccc4c(c3)OCCO4)n2)cc1 and test system Leukocyte tyrosine kinase receptor (Homo sapiens) (UniProt P29376), the measured inhibition is 3.69

Given the molecule CC(C)COC(=O)c1ccc2c(c1)/C(=C/Nc1ccc(S(N)(=O)=O)cc1)C(=O)N2 and test system Leukocyte tyrosine kinase receptor (Homo sapiens) (UniProt P29376), the measured inhibition is 0.07
